Biological target: Beta-3 Adrenergic Receptor (Homo sapiens (Human), UniProt P13945)
Sequence (P13945 whole entry, species assumed): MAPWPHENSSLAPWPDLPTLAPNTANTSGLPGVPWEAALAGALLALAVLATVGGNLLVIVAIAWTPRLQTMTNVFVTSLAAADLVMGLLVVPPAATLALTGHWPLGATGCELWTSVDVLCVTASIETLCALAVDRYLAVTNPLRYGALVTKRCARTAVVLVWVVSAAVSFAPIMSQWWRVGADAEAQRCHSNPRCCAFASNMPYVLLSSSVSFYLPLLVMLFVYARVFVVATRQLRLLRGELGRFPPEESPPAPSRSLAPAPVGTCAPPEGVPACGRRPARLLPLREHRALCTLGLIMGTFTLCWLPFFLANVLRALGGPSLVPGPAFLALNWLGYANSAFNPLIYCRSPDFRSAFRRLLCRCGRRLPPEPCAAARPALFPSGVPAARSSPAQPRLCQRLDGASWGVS
Experiment: HTRF cAMP antagonist assay (IC50 determination)
Settings: CHO-K1 cells stably expressing recombinant receptor; antagonism of isoproterenol at EC90; cAMP readout
Kindly state pIC50 for each of the entries shown.
In plain terms, pIC50 is the concentration in mol/L turned into minus its base-10 logarithm.

Ask: Entry COc1ccc(S(=O)(=O)N2CCC3(CC2)C[C@@H](NC[C@H](O)COc2cccc(S(=O)(=O)C4(CO)CC4)c2)CO3)cc1Br [Compound 193] has what pIC50?
Reply: 7.57

Ask: Entry CCn1cc(S(=O)(=O)N2CCC3(CC2)C[C@@H](NC[C@H](O)COc2cccc(S(=O)(=O)C4CC4)c2)CO3)c(=O)c2cccc(F)c21 [Compound 333] : reported pIC50 = ?
Reply: 7.79

Ask: Recorded pIC50 for NCc1ccc(-c2cccc(S(=O)(=O)N3CCC4(CC3)C[C@@H](NC[C@H](O)COc3cccc(S(=O)(=O)C5CC5)c3)CO4)c2)cc1 [Compound 189] , please?
Reply: 7.99

Ask: Request the reported pIC50 associated with CCn1cc(S(=O)(=O)N2CCC3(CC2)C[C@@H](NC[C@H](O)COc2cccc(S(=O)(=O)C4CC4)c2)CO3)c(=O)c2cccc(C)c21 [Compound 315]
Reply: 7.62

Ask: Need pIC50, item COc1ccc(S(=O)(=O)N2CCC3(CC2)C[C@H](NC[C@H](O)COc2cccc(S(=O)(=O)C4(CO)CC4)c2)CO3)cc1-c1ccc(CN)cc1 [Compound 207]
Reply: 7.29

Ask: Any idea what pIC50 was measured for O=S(=O)(Cc1ccccc1)c1cccc(OC[C@@H](O)CNC2COC3(CCN(S(=O)(=O)c4ccc5ccccc5c4)CC3)C2)c1 (stereo partly drawn) [Compound 20] ?
Reply: 7.12

Ask: Look up pIC50: C[C@@H]1CN(C)c2cc(S(=O)(=O)N3CCC4(CC3)C[C@@H](NC[C@H](O)COc3cccc(S(=O)(=O)C5CC5)c3)CO4)cnc2O1 [Compound 305]
Reply: 7.77

Ask: // query pIC50 value for entry O=S(=O)(CCO)c1cccc(OC[C@@H](O)CN[C@H]2COC3(CCN(S(=O)(=O)c4cccc(-c5cccc(F)n5)c4)CC3)C2)c1 [Compound 134]
Reply: 7.26

Ask: // returns reported pIC50 for input Cn1cnc2cc(S(=O)(=O)N3CCC4(CC3)C[C@@H](NC[C@H](O)COc3cccc(S(=O)(=O)C5CC5)c3)CO4)cnc21 [Compound 279]
Reply: 7.40

Ask: If you can, please state the reported pIC50 value of COc1c(-c2ccc(CN)cc2)cccc1S(=O)(=O)N1CCC2(CC1)C[C@H](NC[C@H](O)COc1cccc(S(=O)(=O)CC(N)=O)c1)CO2 [Compound 206] .
Reply: 6.39

Ask: State the recorded pIC50 for this entry: COc1ccc(S(=O)(=O)N2CCC3(CC2)C[C@H](NC[C@H](O)COc2cccc(S(=O)(=O)C(C)(C)CO)c2)CO3)cc1-c1ccc(CN)cc1 [Compound 223]
Reply: 7.08

Ask: Entry under review: CCOc1ccc(-c2ccc(CN)cc2)cc1S(=O)(=O)N1CCC2(CC1)C[C@H](NC[C@H](O)COc1cccc(S(=O)(=O)C3CC3)c1)CO2 [Compound 160] . Reported pIC50?
Reply: 7.94

Ask: Recorded pIC50 for NC1(c2ccc(-c3cccc(S(=O)(=O)N4CCC5(CC4)C[C@@H](NC[C@H](O)COc4cccc(S(=O)(=O)C6(CO)CC6)c4)CO5)c3)cc2)CC1 [Compound 173] , please?
Reply: 7.51

Ask: Quick one: pIC50 for O=S(=O)(c1cccc(OC[C@@H](O)CN[C@H]2COC3(CCN(S(=O)(=O)c4cnc5ccccc5c4)CC3)C2)c1)C1CC1 [Compound 144] ?
Reply: 8.11

Ask: So what's the measured pIC50 for this one? NCc1ccc(-c2cccc(S(=O)(=O)N3CCC4(CC3)C[C@@H](NC[C@H](O)COc3cccc(S(=O)(=O)CCO)c3)CO4)c2)cc1 [Compound 91]
Reply: 7.43

Ask: Quick one: pIC50 of CN1CCOc2ncc(S(=O)(=O)N3CCC4(CC3)C[C@@H](NC[C@H](O)COc3cccc(S(=O)(=O)CCO)c3)CO4)cc21 [Compound 151] ?
Reply: 7.39

Ask: I have this compound here, O=S(=O)(c1cccnc1)N1CCC2(CC1)C[C@H](NC[C@H](O)COc1cccc(S(=O)(=O)C3(CO)CC3)c1)CO2 [Compound 202] , and I need its recorded pIC50.
Reply: 6.46

Ask: Entry CS(=O)(=O)c1cccc(OC[C@@H](O)CNC2COC3(CCN(S(=O)(=O)c4ccc5c(c4)NC(=O)CO5)CC3)C2)c1 (stereo partly drawn) [Compound 53] has what pIC50?
Reply: 7.62

Ask: Quick one: pIC50 of O=S(=O)(c1cccc(-c2ccc(CN3CCC3)cc2)c1)N1CCC2(CC1)C[C@H](NC[C@H](O)COc1cccc(S(=O)(=O)C3(CO)CC3)c1)CO2 [Compound 243] ?
Reply: 7.46

Ask: # input compound: CCOc1ccc(-c2ccc(CN)cc2)cc1S(=O)(=O)N1CCC2(CC1)C[C@@H](NC[C@H](O)COc1cccc(S(=O)(=O)CC(N)=O)c1)CO2 [Compound 179] ; wanted: its pIC50
Reply: 7.31

Ask: Given the compound CC(C)(C(N)=O)S(=O)(=O)c1cccc(OC[C@@H](O)CN[C@H]2COC3(CCN(S(=O)(=O)c4cnc5ccccc5c4)CC3)C2)c1 [Compound 108] , what is its reported pIC50?
Reply: 6.49

Ask: Given the entry CC(C)CS(=O)(=O)c1cccc(OC[C@@H](O)CNC2COC3(CCN(S(=O)(=O)c4ccc5ccccc5c4)CC3)C2)c1 (stereo partly drawn) [Compound 10] , report its measured pIC50.
Reply: 7.60

Ask: For the compound shown here, O=S(=O)(CC1CCC1)c1cccc(OC[C@@H](O)CNC2COC3(CCN(S(=O)(=O)c4ccc5ccccc5c4)CC3)C2)c1 (stereo partly drawn) [Compound 13] , give the reported pIC50.
Reply: 7.01

Ask: For the compound CCOc1ccc(-c2ccc(C3(N)CC3)cc2)cc1S(=O)(=O)N1CCC2(CC1)C[C@H](NC[C@H](O)COc1cccc(S(=O)(=O)CC)c1)CO2 [Compound 256] , what pIC50 is on record?
Reply: 7.49
